EXPERIMENT_SUMMARY: NCI Yeast Anticancer Drug Screen. Data for the mlh1 rad18 strain (AID 175)
ASSAY_SETUP: S. cerevisiae mlh1 rad18 strain growth inhibition; at 50.0 µM (retest, dose inferred, filed as 5.0)
This is part of a sample that, as a whole, favours compounds with a hit. Of some 79,000 tested, about 15% had one in any assay. Active and inactive are the calls of the source. Rule as the data show it: active = growth inhibition above about 70%; inactive = the rest.
Pick one and only one: active, inactive

# outcome recorded in this test, key = CCOC(=O)NC(c1ccc(C(NC(=O)OCC)P(=O)(O)NC23CC4CC(CC(C4)C2)C3)cc1)P(=O)(O)NC12CC3CC(CC(C3)C1)C2 (stereo not given) inactive

What call does the record list for O=C1Nc2ccccc2/C1=C/c1ccc(Cl)c(Cl)c1 ? active

// outcome(item) with item = N#CC(C#N)=C(c1ccccc1)c1ccccc1 active

Recorded test outcome, item O=C1C=CC(=O)N1C1c2ccccc2-c2ccccc21 active

For Cc1ccc(I)c(C(C)(C)O)c1 , which call appears in the assay record? active

Field: outcome | Entry: CC1C=C(COC(=O)Nc2ccccc2)ON1c1ccccc1 (stereo not given) active

Which outcome did this test record for the compound O=C1OC(CCCl)(c2ccccc2)CC1CN1CCOCC1 (stereo not given) ? active

Hi, sorry to bother you, what did the test record for CCCN(CCC)C(=S)N/N=C(/C)c1ccccc1O ? active

Record lookup: outcome of this test for C[N+]12CC3C4CC(C3C1)C2C4 (stereo not given) ? inactive

Which outcome did this test record for the compound Cc1c(NC(=O)C(=O)N=NC(=O)c2ccncc2)c(O)c2ccccc2c1O ? active

In this assay, the call recorded for O=C1CC(c2ccccc2)C(=O)N2C(=O)CC(c3ccccc3)C(=O)N12 (stereo not given) was what? inactive

Query: recorded result category for CCCCSc1n[nH]c(=O)nc1SC in this test active

Would you mind telling me which call this test gave CCOC(=O)C(C(=O)OCC)C(=O)c1ccccc1C(=O)c1ccccc1 ? inactive

For this compound, state the assay outcome: CCC[CH2][Sn]([CH2]CCC)([O]C(=O)C(OC(C)=O)c1ccccc1)[O]C(=O)C(OC(C)=O)c1ccccc1 (stereo not given) active

Tell me the assay call for O=C1C=CC(=O)N1c1cccc(F)c1 please. active

Assay result, entry CCCCC(CCc1ccccc1)(C(=O)O)c1ccccc1 (stereo not given) — outcome? active

Call for entry Cc1ccc2c(c1)C1(C)C=C(CN3CCN(C)CC3)C(=O)CC1O2 (stereo not given) : active

// outcome(item) with item = CC#Cc1cc2c(cc1O)CC[C@@H]1[C@@H]2CC[C@]2(C)[C@@H](O)CC[C@@H]12 active

In this assay, the call recorded for N=C(N)c1ccc(Nc2ccc(-c3cc4ccc(C(=N)N)cc4[nH]3)cc2)cc1 was what? active

Which result was noted for this compound in the test: CCc1nc(N)nc(N)c1-c1ccc(NCCN)c([N+](=O)[O-])c1 inactive

Record lookup: outcome of this test for CC(C)Cc1ncc(CC(C)C)n(O)c1=O ? active

Per the assay record, what outcome was assigned to CCCc1cc(=O)oc2c3c(c4c(c12)OC(C)(C)C=C4)O[C@@H](C)[C@H](C)[C@H]3O ? active

Assay result, entry COc1cnn(-c2ccccc2)c(=O)c1SCc1ccc(Cl)c(Cl)c1 — outcome? inactive

Per the assay record, what outcome was assigned to CC1CN(CC(O)c2ccc(Br)cc2)CC(C)O1 (stereo not given) ? inactive

Per the records of this test, what outcome belongs to CCN(CC)CCNc1nc(N)c2nc(-c3ccccc3)c(-c3ccccc3)nc2n1 ? inactive

// return assay outcome for CCCCCCCCCCCCCC(=O)N1CCOCC1 active

What did the test return for CN(C)CC(C)(C)/C(=N\Nc1ccccc1)c1ccccc1 ? active

Short answer needed: outcome of this test for CCCCCCCCSCc1ccc(N)cc1 ? active

// return assay outcome for O=S=C(c1ccccc1)N(Cc1ccccc1)Cc1ccccc1 active

Give the logged outcome of this assay for the following compound: COC(=O)C(C#N)=C(SC)SC active

* * *

EXPERIMENT_SUMMARY: NCI Yeast Anticancer Drug Screen. Data for the bub3 strain (AID 167)
ASSAY_SETUP: S. cerevisiae bub3 mutant strain, at 50.0 µM (retest, dose inferred, filed as 5.0), active compounds read high
The panel holds about 79,000 compounds, 15% with a hit somewhere; the sample as a whole holds those more often.
MEASURED_METRIC: growth inhibition (%)
Express the result in % but write the number alone.

The compound listed as N#CC1C=C(Cl)c2ccc(Cl)cc2N1C(=O)c1ccccc1 (configuration not stated) has a reported growth inhibition of 98

Value of measured growth inhibition for the entry S=C1Nc2cnc3ccccc3c2SC1c1ccccc1 (configuration not stated) : 98

For reference, reported growth inhibition for C[N+](C)(C)CCC(=O)c1ccco1 stands at 99

Reported growth inhibition for c1cc(NC2CCCCC2)ccc1CN1CCOCC1 was 78

growth inhibition for COC(=O)C(C#N)=C(SC)SC is 99

So for Cc1ccc2nc(C[n+]3ccc4ccccc4c3)ccc2c1 , the logged growth inhibition turned out to be 38

Looking up CCCCCCCN=C(N)c1ccc(C(=O)OCc2ccccc2)cc1 , I found its growth inhibition recorded as 77

* * *

EXPERIMENT_SUMMARY: NCI Yeast Anticancer Drug Screen. Data for the bub3 strain (AID 167)
ASSAY_SETUP: S. cerevisiae bub3 mutant strain, at 50.0 µM (retest, dose inferred, filed as 5.0)
Method: Growth inhibition of yeast strains with defined genetic alterations is measured as a screen for potential anti-cancer activity. Selected strains with alterations in DNA damage repair or cell cycle control were exposed to compounds and growth inhibition was measured relative to vehicle treated controls. The strain used in this assay is bub3
Compounds without any hit were thinned out: in the full panel of roughly 79,000, 15% have a hit. Calls of active or inactive are those of the source. Cut-off read from the data, not from the text of the source: active = growth inhibition above about 70%; inactive = the rest.
Parameter call: string, one of active, inactive

Status in this test for CC(=O)OCC1OC(OC(C)=O)C(On2nnc3c(-c4ccccc4)c(C)nn32)C(OC(C)=O)C1OC(C)=O (stereo not given) ? inactive

What is the recorded call for this molecule in the test? O=C(/C=C/C=C/c1ccccc1)c1ccco1 inactive

Which outcome was assigned to CCCCCCCCC(=O)NCCN(CCN)C(=O)CCCCCCCC in this test? active

Which result was noted for this molecule in the test: O=C1NC2(C=Cc3c(ccc4ccccc34)O2)Oc2ccccc21 (stereo not given) inactive

Could you check what this test reported for Cc1cc(N(CCOS(C)(=O)=O)CCOS(C)(=O)=O)ccc1C=Nc1ccc(-c2csc(-c3ccc(Cl)cc3)n2)cc1 ? active

# fetch the recorded call for O=C(Nc1ccc(F)cc1)ON=C1CCCCC1 here inactive

What classification did O=C1CCSC(=S)N1c1ccc(N=Nc2ccccc2)cc1 end up with in this test? inactive

Which result was noted for this molecule in the test: CCCCCCN(CCCCCC)CCC(=O)c1ccc2cc(Br)c3ccccc3c2c1 active

How was O=c1cccccc1O classified in this test? active

Record lookup: outcome of this test for CC(C)(N=Nc1ccc([N+](=O)[O-])cc1)[N+](=O)[O-] ? active

* * *

EXPERIMENT_SUMMARY: NCI Yeast Anticancer Drug Screen. Data for the bub3 strain (AID 167)
ASSAY_SETUP: S. cerevisiae bub3 mutant strain, at 50.0 µM
The panel holds about 79,000 compounds, 15% with a hit somewhere; the sample as a whole holds those more often. Calls of active or inactive are those of the source. No stated cut-off is given here; in the data, active means growth inhibition above about 70%; inactive means the rest.
Pick from y (active), n (inactive) when you respond.

Record lookup: outcome of this test for O=C1Nc2ccccc2/C1=C/c1ccc(Cl)c(Cl)c1 ? y

For CN(C)CC/C(=N\Nc1ccc(Cl)cc1)c1ccccc1 , what call appears in the results of this test? y

Dear colleague, could you share the recorded outcome for C/C(=C/c1ccccc1)C(=O)C1C(c2ccccc2)CC(O)C(C)C1c1ccccc1 (stereo unspecified) when you have a moment? y

Any idea what this test logged for O=C(C[n+]1ccc2ccccc2c1)c1ccc(-c2ccccc2)cc1 ? y

In this assay, the call recorded for O=[N+]([O-])c1cccc2nc3ccccc3c(NCCO)c12 was what? y

I'd appreciate the recorded outcome for COc1ccc(CC[N+]2(C)COc3cc4oc(=O)cc(C)c4cc3C2)cc1OC (stereo unspecified) from this test. n

* * *

EXPERIMENT_SUMMARY: NCI Yeast Anticancer Drug Screen. Data for the cln2 rad14 strain (AID 165);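 also: 0% = growth equal to vehicle treated cultures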
ASSAY_SETUP: S. cerevisiae cln2 rad14 strain, at 50.0 µM, active compounds read high
Protocol: Growth inhibition of yeast strains with defined genetic alterations is measured as a screen for potential anti-cancer activity. Selected strains with alterations in DNA damage repair or cell cycle control were exposed to compounds and growth inhibition was measured relative to vehicle treated controls. The strain used in this assay is cln2 rad14
The panel holds about 79,000 compounds, 15% with a hit somewhere; the sample as a whole holds those more often. Activity calls are given as the source filed them. No stated cut-off is given here; in the data, active means growth inhibition above about 70%; inactive means the rest.
Please respond with reported growth inhibition for every item in the list.

growth inhibition in this record for C(C#Cc1ccccc1)#CCc1ccccc1 : 6.5% (inactive)

Reported growth inhibition for O=C1c2ccccc2C(O)(C#Cc2ccccc2)c2cnccc21 (centres undefined) was 97% (active)

Recorded result, CCCCCCCCCN(CCCCCCCCC)CC(O)c1cc2c(c3ccccc13)CCCC2 (centres undefined) , growth inhibition: 98.9% (active)

Measured growth inhibition, CC(C)(C)C(=O)/C=C/c1ccc2ccccc2n1 : 8.6% (inactive)

// data source = PubChem BioAssay (NCI)
